assayed_system: chimeric BTLA of humanised-BTLA mice (human extracellular region, murine transmembrane and signaling … (human; mouse, UniProt Q7TSA3 184-306, limits assumed); note: test concentration or dose not given here
Sequence (Q7TSA3 other isoform, or with tags, fused parts or gaps mutant limits assumed): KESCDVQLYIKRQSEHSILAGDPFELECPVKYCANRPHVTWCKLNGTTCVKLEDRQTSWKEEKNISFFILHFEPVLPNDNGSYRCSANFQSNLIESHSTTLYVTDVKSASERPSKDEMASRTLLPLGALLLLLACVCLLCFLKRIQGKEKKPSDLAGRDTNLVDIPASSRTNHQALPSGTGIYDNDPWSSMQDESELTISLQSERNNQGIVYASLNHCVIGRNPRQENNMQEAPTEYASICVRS
measurement_notes: cell-based or functional assay
readout: AntiCD3/CD28 (CD69+ CD4 T cells) repeat 1 (% inhibition)
The figure you give is taken to be in % inhibition; do not add the unit.

Here is how some binders turned out for AntiCD3/CD28 (CD69+ CD4 T cells) repeat 1.
binder="14D4 (antibody, IgG1, V domains shown, mIgG1) VH: QVQLQQPGAELVKPRASVKLSCKASGYTFTSYWMHWVKQRPGQGLEWIGMIHPNNGIPNYNEKFKSKATLTVDKSSTTAYMQLSSLTSEDSAVYHCAREGYYGSEGYFDVWGTGTTVTVSS VL: QIVLTQSPAIMSASPGEKVTMTCSASSSISYIHWYQQKPGTSPKRWIYDTSKLASGVPARFSGSGSGTSYSLTISSMEAEDAATYYCHQRSTYPYTFGGGTKLEIK" value=43
binder="24H7 (antibody, IgG1, V domains shown, mIgG1) VH: QVQLQQSGAELVRPGASVTLSCKASGYTFTDYEIHWVKQTLVHGLEWIGPIDPDTGNTAYNQNLKGKAILTADKSSSTAYMELRSLTSEDSAVYYCTRGGYDSDWGFAYWGQGTLVTVSA VL: DIVMTQATPSVPVTPGESVSISCRSSKSLLHSNGNTFLFWFLQRPGQSPQLLIYRMSDLASGVPDRFSGSGSGTAFTLRISRVEAEDVGIYYCMQHLEYPFTFGSGTKLEIK" value=52

AntiCD3/CD28 (CD69+ CD4 T cells) repeat 1 in this record for 15C6 (antibody, IgG1, V domains shown, mIgG1) VH: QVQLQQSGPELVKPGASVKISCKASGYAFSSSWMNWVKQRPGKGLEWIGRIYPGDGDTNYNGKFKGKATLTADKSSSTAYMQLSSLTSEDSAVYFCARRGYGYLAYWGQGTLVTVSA VL: DIVMTQSHKFMSTSVGDRVSITCKASQDVSTAVAWYQQKPGQSPKLLIYSASYRYTGVPDRFTGSGSGTDFTFTISSVQAEDLAVYYCQQHYSTPYTFGGGTKLEIK : 12
